systemName: T1, human MuSK (human, UniProt O15146 24-495)
T1 construct: Recombinant protein coated on ELISA plates (R&D Systems cat. 10189-MK) or on the Biacore chip; also called human muscle-specific tyrosine protein kinase; full length human MuSK
T1 sequence: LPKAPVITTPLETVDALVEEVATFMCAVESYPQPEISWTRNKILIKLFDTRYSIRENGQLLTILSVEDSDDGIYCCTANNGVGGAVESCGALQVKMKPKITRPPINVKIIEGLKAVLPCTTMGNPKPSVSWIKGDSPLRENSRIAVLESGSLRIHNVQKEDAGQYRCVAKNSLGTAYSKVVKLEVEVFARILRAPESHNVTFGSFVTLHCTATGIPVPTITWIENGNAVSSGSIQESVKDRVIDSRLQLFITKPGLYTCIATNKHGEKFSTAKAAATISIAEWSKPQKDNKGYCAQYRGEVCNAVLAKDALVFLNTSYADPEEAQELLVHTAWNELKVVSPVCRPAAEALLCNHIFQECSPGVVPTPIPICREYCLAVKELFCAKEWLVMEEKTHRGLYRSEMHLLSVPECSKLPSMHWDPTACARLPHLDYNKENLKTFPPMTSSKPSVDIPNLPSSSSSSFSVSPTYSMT
assayOverview: Biacore T200, MuSK on chip (200RU), 22.2 nM Fab, dissociation pH 5.5
Quick reference: koff of the listed items.
Number only, in s⁻¹; omit the unit.

binder: X2 Fab (Fab, V domains shown, Fab format) VH: EVQLVESGGGLVQPGGSLRLSCAASGFTVSSSSIHWVRQAPGKGLEWVASISSSYGSTSYADSVKGRFTISADTSKNTAYLQMNSLRAEDTAVYYCARSEGDRYVSGYMGMDYWGQGTLVTVSS VL: DIQMTQSPSSLSASVGDRVTITCRASQSVSSAVAWYQQKPGKAPKLLIYSASSLYSGVPSRFSGSRSGTDFTLTISSLQPEDFATYYCQQSGVWLITFGQGTKVEIK
outputUnit: s⁻¹
dataValue: 0.00034
--
binder: X3 Fab (Fab, V domains shown, Fab format) VH: EVQLVESGGGLVQPGGSLRLSCAASGFTISSSSIHWVRQAPGKGLEWVASISSSSGYTYYADSVKGRFTISADTSKNTAYLQMNSLRAEDTAVYYCARSWYEMWMSGYFGFDYWGQGTLVTVSS VL: DIQMTQSPSSLSASVGDRVTITCRASQSVSSAVAWYQQKPGKAPKLLIYSASSLYSGVPSRFSGSRSGTDFTLTISSLQPEDFATYYCQQSSSSLITFGQGTKVEIK
outputUnit: s⁻¹
dataValue: 0.00225

Shift focus to the following entry.
Supply measured koff of X9 Fab (Fab, V domains shown, Fab format) VH: EVQLVESGGGLVQPGGSLRLSCAASGFTFSSSSIHWVRQAPGKGLEWVASIYSSSGSTYYADSVKGRFTISADTSKNTAYLQMNSLRAEDTAVYYCARSGGEFYITSYYGMDYWGQGTLVTVSS VL: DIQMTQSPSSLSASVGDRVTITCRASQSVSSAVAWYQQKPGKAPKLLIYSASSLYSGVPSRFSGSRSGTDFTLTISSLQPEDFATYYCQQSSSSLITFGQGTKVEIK in your reply.
0.00083
